Target: Endothelin receptor type B (Sus scrofa)
Sequence (P35463 whole entry): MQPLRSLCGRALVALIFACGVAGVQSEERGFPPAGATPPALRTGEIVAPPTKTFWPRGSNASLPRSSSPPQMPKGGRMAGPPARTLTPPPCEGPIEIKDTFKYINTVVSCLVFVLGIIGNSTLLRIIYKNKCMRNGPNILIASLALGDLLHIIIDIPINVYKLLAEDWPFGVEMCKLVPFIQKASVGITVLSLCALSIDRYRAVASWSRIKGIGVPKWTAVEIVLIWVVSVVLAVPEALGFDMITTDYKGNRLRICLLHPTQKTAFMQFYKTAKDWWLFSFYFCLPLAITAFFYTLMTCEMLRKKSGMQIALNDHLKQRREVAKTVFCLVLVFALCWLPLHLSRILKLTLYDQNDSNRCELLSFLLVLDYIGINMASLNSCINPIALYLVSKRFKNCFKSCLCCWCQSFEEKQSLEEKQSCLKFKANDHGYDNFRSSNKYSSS
Please find below IC50 measurements for Endothelin receptor type B (Sus scrofa), combined from several publications.
Lab note: class by IC50, see interval 1 = under 3 µM, interval 2 = from 3 µM up to 20 µM, interval 3 = 20 µM and over

Completed entries (count: 10):
COc1ccc(C(=O)N(Cc2cc3c(cc2Cl)OCO3)C(Cc2c[nH]c3ccccc23)C(=O)O)cc1 (stereo unspecified); interval 3
Cc1c(C(=O)O)nc([C@@H](Cc2c[nH]c3ccccc23)NC(=O)[C@H](CC(C)C)NC(=O)N2CCCCCC2)n1Cc1ccccc1; interval 3
CNC(=O)c1nc([C@@H](Cc2c[nH]c3ccccc23)NC(=O)[C@H](CC(C)C)NC(=O)N2CCCCCC2)oc1C; interval 3
Cc1cc(C)c(=O)n(C(C(=O)NS(=O)(=O)c2ccc(C(C)C)cc2)c2ccc3c(c2)OCO3)n1 (stereo unspecified); interval 2
COc1ccc(C(=O)/C(Cc2ccccc2OC)=C(\C(=O)O)c2ccc3nsnc3c2)cc1; interval 1
O=C(O)C(Cc1c[nH]c2ccccc12)N(Cc1cc2c(cc1Cl)OCO2)Cc1cc2c(cc1Cl)OCO2 (stereo unspecified); interval 2
Cc1ccc(=O)n(C(C(=O)NS(=O)(=O)c2ccc(C(C)C)cc2)c2ccc3c(c2)OCO3)n1 (stereo unspecified); interval 1
Cc1[nH]c([C@@H](Cc2cn(C)c3ccccc23)NC(=O)[C@H](CC(C)C)NC(=O)NC2CCCC2)nc1C(=O)O; interval 3
CCCCN(CCCC)C(=O)CN1C[C@H](c2ccc3occc3c2)[C@@H](C(=O)O)[C@@H]1c1ccc(OC)cc1; interval 2
CCCN(CCN1C[C@H](c2ccc3c(c2)OCO3)[C@@H](C(=O)O)[C@@H]1c1ccc(OC)cc1)S(=O)(=O)c1ccccc1; interval 1

Pick a category. Item: "COc1ccc(C(=O)/C(Cc2cc(OC)c(OC)c(OC)c2)=C(\C(=O)[O-])c2ccc3nsnc3c2)cc1F.[Na+]" interval 1

Pick a category. Item: "COc1cc(C/C(C(=O)c2ccc(OC(F)F)cc2)=C(/C(=O)O)c2ccc3nsnc3c2)cc(OC)c1OC" interval 1

Pick a category. Item: Cc1oc([C@@H](Cc2cn(C)c3ccccc23)NC(=O)[C@H](CC(C)C)NC(=O)NC2CC3CCC2C3)nc1C(=O)O (stereo in doubt; 15p) interval 3

----------
Please find below pIC50 measurements for Endothelin receptor type B (Sus scrofa, UniProt P35463), combined from several publications.
Answer as the number alone; pIC50 is minus log10 of concentration in mol/L.

Worked set:
CCCN(CCN1C[C@H](c2ccc3c(c2)OCO3)[C@@H](C(=O)O)[C@@H]1c1ccc(OC)c(F)c1)S(=O)(=O)CCCCl (stereo in doubt; 15d); 9.70
Cc1oc([C@@H](Cc2cn(C)c3ccccc23)NC(=O)[C@H](CC(C)C)NC(=O)Nc2cccc(F)c2)nc1C(=O)O; 4.26
CCCN(CCN1C[C@H](c2ccc3c(c2)OCO3)[C@@H](C(=O)O)[C@@H]1c1ccc(OC)cc1)S(=O)(=O)c1ccc(C)cc1; 7.07
CCOC(=O)CN(Cc1cc2c(cc1Cl)OCO2)C(Cc1ccc(O)cc1)C(=O)O (configuration not stated); 4.26

Please give measured pIC50 of the following entry: "CCCN(CCN1C[C@H](c2ccc3c(c2)OCO3)[C@@H](C(=O)O)[C@@H]1c1ccc(OC)c(F)c1)S(=O)(=O)Cc1ccccc1" 8.54

Please give measured pIC50 of the following entry: "COc1ccc(C(=O)/C(Cc2cccc(OC)c2)=C(\C(=O)O)c2ccc3nsnc3c2)cc1" 6.00

----------
Molecular target: Endothelin receptor type B (Sus scrofa)
Sequence (P35463 whole entry): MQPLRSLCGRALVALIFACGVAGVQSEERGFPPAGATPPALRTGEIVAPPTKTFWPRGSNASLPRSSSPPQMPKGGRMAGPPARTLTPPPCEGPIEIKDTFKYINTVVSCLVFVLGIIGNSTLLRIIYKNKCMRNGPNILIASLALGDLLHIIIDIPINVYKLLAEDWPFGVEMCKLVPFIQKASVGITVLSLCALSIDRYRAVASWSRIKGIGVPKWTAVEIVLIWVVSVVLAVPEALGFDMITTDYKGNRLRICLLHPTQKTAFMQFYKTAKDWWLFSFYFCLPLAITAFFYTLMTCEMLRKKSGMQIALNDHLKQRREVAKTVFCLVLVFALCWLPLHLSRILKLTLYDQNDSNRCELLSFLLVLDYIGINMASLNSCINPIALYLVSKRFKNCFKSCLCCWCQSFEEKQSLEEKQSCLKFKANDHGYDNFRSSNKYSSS
pIC50: −log10 of the molar value.
Please find below pIC50 measurements for Endothelin receptor type B (Sus scrofa), combined from several publications.
Assign met to entries whose pIC50 meets or exceeds 7; assign not met to the rest.

Cc1ccc(=O)n(C(C(=O)NS(=O)(=O)c2ccccc2)c2ccc3c(c2)OCO3)n1 (stereo not given); not met
COc1ccc(C(=O)/C(Cc2ccc(SC)cc2)=C(\C(=O)O)c2ccc3nsnc3c2)cc1; not met
COc1ccc(C(=O)/C(Cc2ccc(OC)c(F)c2)=C(\C(=O)O)c2ccc3nsnc3c2)cc1; not met
CCCN(CCN1C[C@H](c2ccc3c(c2)OCO3)[C@@H](C(=O)O)[C@@H]1c1ccc(OC)c(F)c1)S(=O)(=O)CCCC(F)(F)F (stereo in doubt; 15e); met
CCCN(C)C(=O)CN1C[C@H](c2cccc3occc23)[C@@H](C(=O)O)[C@@H]1c1ccc(OC)cc1; not met

Item "CCCN(CCN1C[C@H](c2ccc3c(c2)OCO3)[C@@H](C(=O)O)[C@@H]1c1ccc(OC)cc1)S(=O)(=O)c1ccc(Cl)cc1" with pIC50 of 7 or above? met

Item CC(C)c1ccc(S(=O)(=O)NC(=O)C(c2ccc3c(c2)OCO3)n2nc(C(C)(C)C)ccc2=O)cc1 (stereo not given) with pIC50 of 7 or above? not met

Item "Cc1[nH]c([C@@H](Cc2cn(C)c3ccccc23)NC(=O)[C@H](CC(C)C)NC(=O)N2CCCCCC2)nc1C(=O)O" with pIC50 of 7 or above? not met

Item CCCCS(=O)(=O)N(CCC)CCN1C[C@H](c2ccc3c(c2)OCO3)[C@@H](C(=O)O)[C@@H]1c1ccc(OC)c(F)c1 (stereo in doubt; 15a) with pIC50 of 7 or above? met

Item "Cc1[nH]c([C@@H](Cc2c[nH]c3ccccc23)NC(=O)[C@H](CC(C)C)NC(=O)NC2CCCCC2)nc1C(=O)O" with pIC50 of 7 or above? not met

Item "CCCN(C)C(=O)CN1C[C@H](c2ccc(F)c(F)c2)[C@@H](C(=O)O)[C@@H]1c1ccc(OC)cc1" with pIC50 of 7 or above? not met

Item "Cc1oc([C@@H](Cc2c[nH]c3ccccc23)NC(=O)[C@H](CC(C)C)NC(=O)N2CCCCCC2)nc1C(=O)NCC(=O)O" with pIC50 of 7 or above? not met

Item "Cc1oc([C@@H](Cc2c[nH]c3ccccc23)NC(=O)[C@H](CC(C)C)NC(=O)N2CCCCCC2)nc1C(=O)O" with pIC50 of 7 or above? not met

Item CCCCCS(=O)(=O)N(CCC)CCN1C[C@H](c2ccc3c(c2)OCO3)[C@@H](C(=O)O)[C@@H]1c1ccc(OC)c(F)c1 (stereo in doubt; 15b) with pIC50 of 7 or above? met

----------
Please find below IC50 measurements for UniProt:P35463, combined from several publications.
Lab note: anything with IC50 below 20 µM is marked Met; values at 20 µM or higher are marked Not met.

Completed entries (count: 2):
CCCN(C)C(=O)CN1C[C@H](c2ccc(OC)cc2OC)[C@@H](C(=O)O)[C@@H]1c1ccc(OC)cc1; Not met
COc1ccc(C(=O)/C(Cc2ccc(OC(C)(C)C)cc2)=C(\C(=O)O)c2ccc3nsnc3c2)cc1; Met

Lab log: compare recorded IC50 with 20 µM; is it strictly lower for "CCCN(C)C(=O)CN1C[C@H](c2ccc3ccccc3c2)[C@@H](C(=O)O)[C@@H]1c1ccc(OC)cc1" ? Not met

Lab log: compare recorded IC50 with 20 µM; is it strictly lower for "Cc1[nH]c([C@@H](Cc2c[nH]c3ccccc23)NC(=O)[C@H](CC(C)C)NC(=O)N2CCCCCC2)nc1C(=O)O" ? Not met
